target: Pantothenate synthetase (Mycobacterium tuberculosis (strain ATCC 25618 / H37Rv)) (UniProt P9WIL5); assay: Coupled enzyme confirmation of inhibitors against recombinant Mtb PanC (AID 375); conditions: coupled enzyme assay; at 10 µM, active compounds read high;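 also: 0% = full reaction with vehicle and 100% = no enzyme background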
Sequence (P9WIL5 whole entry, looked up): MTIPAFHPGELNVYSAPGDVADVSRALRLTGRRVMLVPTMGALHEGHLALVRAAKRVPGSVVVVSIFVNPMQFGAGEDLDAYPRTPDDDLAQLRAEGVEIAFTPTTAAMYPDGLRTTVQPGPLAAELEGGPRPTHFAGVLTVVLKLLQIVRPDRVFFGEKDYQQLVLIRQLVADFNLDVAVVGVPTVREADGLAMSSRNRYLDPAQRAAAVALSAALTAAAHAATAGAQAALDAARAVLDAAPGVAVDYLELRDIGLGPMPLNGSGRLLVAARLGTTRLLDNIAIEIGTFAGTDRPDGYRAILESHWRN
Result type: inhibition (%)
Report as a plain number; the unit % is understood.

Worked cases, answers included:
Compound: COc1cccc(NS(=O)(=O)c2ccc3[nH]cc(C(=O)NC4CC4)c(=O)c3c2)c1
Result type: inhibition
Measurement unit: %
Value: 2
--
Compound: CC(=O)Nc1ccc(S(=O)(=O)N2CCN(C(=O)CCC3CCCC3)CC2)cc1
Result type: inhibition
Measurement unit: %
Value: 0
--
Compound: COc1cccc(NC(=O)N2CCN(c3cccc(C)c3C)CC2)c1
Result type: inhibition
Measurement unit: %
Value: 0
--
Compound: COc1ccc(Cn2nnnc2C(c2ccccc2OC)N2CCC(C(N)=O)CC2)cc1 (stereo not drawn)
Result type: inhibition
Measurement unit: %
Value: 0
--
Compound: O=C(CCCn1c(=O)c2sccc2n(CC(=O)NCc2ccco2)c1=O)NCc1ccco1
Result type: inhibition
Measurement unit: %
Value: 0
--
Compound: c1ccc2c(NC3CCCC3)nnc(NC3CCCC3)c2c1
Result type: inhibition
Measurement unit: %
Value: 0
--
Compound: O=C(CN1C(=O)NC2(CCCCC2)C1=O)Nc1ccc(S(=O)(=O)N2CCOCC2)cc1
Result type: inhibition
Measurement unit: %
Value: 5
--
Compound: O=C(CN1CCN(c2nc(-c3ccc(Cl)cc3)cs2)CC1)NCc1ccco1
Result type: inhibition
Measurement unit: %
Value: 4

State the recorded inhibition for this entry: O=S(=O)(c1ccc(S(=O)(=O)N2CCN3CCCC3C2)cc1)N1CCCC1 (stereo not drawn) 0

Need inhibition of CN(CCO)CC(O)Cn1cnc2c1c(=O)n(C)c(=O)n2C (stereo not drawn) (tested in a mixture with another compound) , thanks. 0

Tell me the measured inhibition of O=c1cc(NCc2ccccc2)nc2n1CCCS2 , please. 0

State the recorded inhibition for this entry: CCCNC(=O)CS(=O)(=O)Cc1nc(-c2cccc(OC)c2)oc1C 0

Any idea what inhibition was measured for CCOC(=O)C1=C(C)N=C2SCCC(=O)N2C1c1cc(Br)ccc1OC (stereo not drawn) ? 5

Please give the measured inhibition for this compound: CCOc1cc(S(=O)(=O)NCc2ccc3c(c2)OCO3)ccc1F 2

###

target: Pantothenate synthetase (Mycobacterium tuberculosis (strain ATCC 25618 / H37Rv)); assay: Coupled enzyme confirmation of inhibitors against recombinant Mtb PanC (AID 375); conditions: coupled enzyme assay; at 10 µM, active compounds read high;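 also: 0% = full reaction with vehicle and 100% = no enzyme background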
Result type: inhibition (%)
Write down the numeric answer in % and omit the unit.

Compound: O=C(CCn1nc(-c2ccc(Cl)cc2)ccc1=O)N1CCN(c2ccccn2)CC1
inhibition / %: 7
//
Compound: Cc1nnc(N2C(=O)c3oc4ccccc4c(=O)c3C2c2ccco2)s1 (centres undefined)
inhibition / %: 2
//
Compound: CC(C)C(C(=O)Nc1ccc2c(c1)OCO2)N1C(=O)c2ccccc2C1=O (centres undefined)
inhibition / %: 0
//
Compound: CCOc1c(C)cc2[nH]c(CCC(=O)O)nc2c1C
inhibition / %: 0
//
Compound: CCNS(=O)(=O)c1c(C)cc(N2CCCC2=O)cc1C
inhibition / %: 6
//
Compound: CCCc1cc(C(=O)Nc2ccccc2SC)no1
inhibition / %: 0
//
Compound: Cc1ccc(S(=O)(=O)CCC(=O)Nc2ccc3c(c2)OCO3)cc1
inhibition / %: 6
//
Compound: COc1ccc(-c2nnc(SCCC(=O)O)n2-c2ccccc2)cc1
inhibition / %: 0

Next compound, please.
Tell me the measured inhibition of CSc1nc2ccc(Nc3nc(N4CCOCC4)nc(N4CCOCC4)n3)cc2s1 , please. 2

###

target: Pantothenate synthetase (Mycobacterium tuberculosis (strain ATCC 25618 / H37Rv)); experiment: Coupled enzyme confirmation of inhibitors against recombinant Mtb PanC (AID 375); settings: coupled enzyme assay; at 10 µM, active compounds read high;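 also: 0% = full reaction with vehicle and 100% = no enzyme background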
Result type: inhibition (%)
Quick reminder: number only, in %, skip the unit.

Example entries and their recorded answers appear below.
Compound: CNCCCC1c2ccccc2C=Cc2ccccc21
Value: 0
--
Compound: Cc1c(C#N)c(N)c(C(=O)c2ccccc2)n1Cc1ccccc1
Value: 0
--
Compound: O=C(CN(CCc1ccccc1)C(=O)CNS(=O)(=O)c1ccccc1)NCC1CCCO1 (stereo not given)
Value: 0

Using the record for Cc1occc1C(=O)Nc1cccnc1 , report its inhibition. 16

Can you look up the measured inhibition of O=C1CCCCCC1C1(O)C(=O)Nc2ccccc21 (stereo not given) for me? 7

What measured inhibition goes with Cc1cc2cc(CNC(=O)c3ccc4c(c3)OCO4)ccc2[nH]1 ? 0

Look at this compound and give its reported inhibition. CCOc1ccc(C(C)=O)cc1COc1ccc(-n2cnnn2)cc1 13

Return reported inhibition; argument: O=C(CN1C(=O)C2CC=C(Cl)CC2C1=O)Nc1ccc(C(=O)O)cc1 (stereo not given) 0

###

Parameter inhibition: see the listing below.
biological target: Pantothenate synthetase (Mycobacterium tuberculosis (strain ATCC 25618 / H37Rv)); test: Coupled enzyme confirmation of inhibitors against recombinant Mtb PanC (AID 375); settings: coupled enzyme assay; at 10 µM, active compounds read high;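 also: 0% = full reaction with vehicle and 100% = no enzyme background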
The source made the active and inactive calls. The rule behind the calls is not given here.

Compound: COc1cccc(-c2csc3nnc(SCC(=O)c4ccc(NC(C)=O)cc4)n23)c1
Value: 1% (inactive)
--
Compound: COc1ccc(N2CC(C(=O)Nc3ccc(F)cc3F)CC2=O)cc1 (centres undefined)
Value: 1% (inactive)
--
Compound: CC(C)COc1ccc(C(=O)OCCN2CCOCC2)cc1
Value: 1% (inactive)
--
Compound: Cc1ccc(NC(=O)c2ccccc2O)cc1
Value: 1% (inactive)
--
Compound: C=CCC1(O)C(=O)Nc2ccccc21 (centres undefined)
Value: 0% (inactive)
--
Compound: Cc1cc(S(=O)(=O)N(Cc2ccccc2)Cc2ccc(N(C)C)cc2)ccc1-n1cnnn1
Value: 0% (inactive)
--
Compound: CC1(C)NC(=O)N(CC(O)COc2cccc(F)c2)C1=O (centres undefined)
Value: 0% (inactive)
--
Compound: Cc1nc2c(-c3ccccc3)c(C)nn2c(C)c1CCC(=O)O
Value: 0% (inactive)
--
Compound: NC(=O)C1CCN(C(=O)c2cc3n(n2)C(C(F)(F)F)CC(c2ccco2)N3)CC1 (centres undefined)
Value: 0% (inactive)
--
Compound: Cc1cccc(C)c1NC(=O)c1cc(S(=O)(=O)N2CCOCC2)ccc1F
Value: 0% (inactive)

Consider the compound Cc1ccc(S(=O)(=O)NCCCNC(=O)N2CCOCC2)cc1 and give its measured inhibition. 0% (inactive)

Which value of inhibition has been reported for COC(=O)c1ccccc1NS(=O)(=O)c1ccc(F)cc1 in the records? 0% (inactive)

For the compound CNC(=O)c1ccsc1NC(=O)c1ccccc1 , what inhibition is on record? 4% (inactive)

// returns reported inhibition for input CN(C1CCCCC1)S(=O)(=O)c1ccc(S(=O)(=O)N2CCN(CCC#N)CC2)cc1 6% (inactive)

###

experiment: HUVEC growth inhibition – cell-based, human, primary screen (AID 575); conditions: HUVEC proliferation, CellTiter-Glo luminescence, 72 h; at 10 µM; active compounds read low;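 also: 100% = median of untreated cell wells with 0.1% DMSO on each plate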
Attribute: viability
Provide only the numeric value, understood in %.

Compound: Cc1nc2ccccc2c(=O)n1-c1ccc(F)cc1
Value: 93.6

Compound: CN1CCN(c2c[nH]c(=O)[nH]c2=O)CC1
Value: 90.6

Compound: C=CCn1c(O)c(C(C)=NCc2cccnc2)c(=O)[nH]c1=O
Value: 88.1

# viability lookup, item CCOC(=O)C1SC2(C(F)F)CC1(O)c1c(c(OC)c3occc3c1OC)O2 (stereo unspecified) 93.3

Quick one: viability for CCC(COC(=O)c1cc(OC)c(OC)c(OC)c1)(c1ccccc1)N(C)C (stereo unspecified) ? 104

Need viability of O=C1OCCC1NC1=NCCC1 (stereo unspecified) , thanks. 111

Query: viability; subject: CC(C)OCCCNC(=O)c1c(N)n(CC2CCCO2)c2nc3ccccc3nc12 (stereo unspecified) 55.2

For c1ccc2c(c1)OCC(C1=NCCN1)O2 (stereo unspecified) , what is its reported viability? 108

Which value of viability has been reported for Cc1ccc(O)c(CN2CCN(c3ccccc3)CC2)c1 in the records? 101

What does the record list as viability for CSc1ccc(C(=O)C(C)(C)N2CCOCC2)cc1 ? 112

Requested read-out: viability. Entry: CN(C)CCN=Cc1c(O)n(-c2cccc3ccccc23)c(=O)[nH]c1=O 103

// returns reported viability for input NCCc1ccc(O)cc1 103

###

molecular target: Pantothenate synthetase (Mycobacterium tuberculosis (strain ATCC 25618 / H37Rv)); experiment: Coupled enzyme confirmation of inhibitors against recombinant Mtb PanC (AID 375); conditions: coupled enzyme assay; at 10 µM, active compounds read high;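 also: 0% = full reaction with vehicle and 100% = no enzyme background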
Result type: inhibition (%)
Answer with a number only, understood to be in %.

Compound: CCOc1ccc2[nH]c(C)cc(=O)c2c1
Measurement unit: %
inhibition: 0

Compound: NC(=O)COC(=O)CNC(=O)c1ccc(Cl)cc1
Measurement unit: %
inhibition: 0

Compound: O=C(C1CCCO1)N1CCN(Cc2nc3ccccc3c(=O)[nH]2)CC1 (stereo not drawn)
Measurement unit: %
inhibition: 0

Compound: CCc1nnc(NC(=O)CCC(=O)Nc2ccccc2)s1
Measurement unit: %
inhibition: 4

# get_value(readout='inhibition', item= O=C(CSc1nnc2ncccn12)N1CCCCCC1 ) 0

What value of measured inhibition is listed for COc1ccc(Cc2nnc3n2N=C(c2cc4ccccc4o2)CS3)cc1OC ? 0

What inhibition value was documented for this compound, COCCn1nnnc1CN(CCCN1CCOCC1)Cc1cc2c(C)ccc(C)c2[nH]c1=O ? 0

Need inhibition, item c1ccc(-n2ncc3c(N4CCCCC4)ncnc32)cc1 0

Would you mind telling me what inhibition value was observed for NC(=O)CSCc1ccc(Br)cc1 ? 0

inhibition for Cc1nc2ccc(S(=O)(=O)NCC(=O)N3CCc4ccccc4C3)cc2s1 ? 2

Using the record for O=C1CC(c2cccc(Cl)c2)Cc2nc(N3CCN(c4ccccc4)CC3)ncc21 (stereo not drawn) , report its inhibition. 0

Could you tell me which inhibition is on file for CCOC(=O)c1c(NC(=O)Cn2c(C)nc3ccccc32)sc2c1CCC2 ? 0

# get_value(readout='inhibition', item= Cc1ccc(C(C(=O)NC2CCCCC2)N(C(=O)c2csnn2)C2CCCC2)o1 (stereo not drawn) ) 0
